Cited source for all entries: patent US6355665B1

# test target: Histamine H3 receptor (Cavia porcellus, UniProt Q9JI35)
# Sequence (Q9JI35 whole entry): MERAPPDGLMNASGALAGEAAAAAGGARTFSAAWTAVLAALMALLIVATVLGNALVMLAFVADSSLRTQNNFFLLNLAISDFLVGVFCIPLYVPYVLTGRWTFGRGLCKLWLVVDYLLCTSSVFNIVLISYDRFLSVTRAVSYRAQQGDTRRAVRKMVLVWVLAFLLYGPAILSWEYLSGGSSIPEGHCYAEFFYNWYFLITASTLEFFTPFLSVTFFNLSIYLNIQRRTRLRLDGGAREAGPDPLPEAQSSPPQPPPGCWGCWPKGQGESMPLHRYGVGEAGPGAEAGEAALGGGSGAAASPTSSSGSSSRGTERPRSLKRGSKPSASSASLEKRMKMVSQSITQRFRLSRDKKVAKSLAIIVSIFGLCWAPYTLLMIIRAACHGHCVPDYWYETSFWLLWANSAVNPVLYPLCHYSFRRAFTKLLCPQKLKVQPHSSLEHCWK
# method description: ileal longitudinal muscle, myenteric plexus functional assay (rightward shift of R-(α)-methylhistamine E/[A] curves, Schild)
# Type: cell-based
# Parameters: the longitudinal muscle layer and adhering myenteric plexus was teased away; from tissue; host or cells: guinea pig ileal longitudinal muscle with myenteric plexus (organ bath)
# condition description: guinea pig ileum longitudinal muscle myenteric plexus, electrically stimulated; antagonism of R-(α)-methylhistamine; typical variance ±0.15 log units; read-out: pKB (functional assay) - ileum (converted)
endpoint: Kb (nM)

Solved entries:
structure string: O=S(=O)(C/C=C/CCc1c[nH]cn1)NCc1ccc(Cl)cc1
Kb / nM: 4.68
//
structure string: O=S(=O)(CCCCCc1c[nH]cn1)NCc1ccccc1
Kb / nM: 58.9

1 = O=S(=O)(CCCCCCc1c[nH]cn1)NCc1ccc(Cl)cc1
2 = O=S(=O)(CCCCCc1c[nH]cn1)NCc1ccc(Br)cc1
Input: // pick larger Kb from pair: 1 vs 2 Lab note: record the label of whichever item you select.
Output: 1
(1: 5.13 nM, 2: 3.39 nM)

====

# test target: UniProt:Q9JI35
# method description: Histamine H3 radioligand binding assay, guinea pig cortex ([3H]-R-α-methylhistamine)
# Parameters: The cortex was dissected, weighed and homogenised in ice-cold 20 mM Hepes-NaOH buffer; from tissue; host or cells: guinea pig cerebral cortex membranes
# condition description: guinea pig cortex membranes; [3H]-R-α-methylhistamine 0.1 nM; typical variance ±0.12 log units; read-out: pKI (binding assay) - cortex (converted)
Catalogue of Ki readings, one per entry.
# unit: nM | format: bare number

Below, each entry is followed by its recorded Ki result.
compound: O=S(=O)(CC(O)CCCc1c[nH]cn1)NCc1ccc(Cl)cc1 (stereo not drawn) [Example 6]
experimental value: 5.01

compound: O=S(=O)(CCCCc1c[nH]cn1)CCc1ccc(Cl)cc1 [Example 24]
experimental value: 5.62

Input: Could you tell me which Ki is on file for O=S(=O)(CCCCCc1c[nH]cn1)NCc1ccccc1 [Example 13] ?
Output: 8.91

====

# test target: Histamine H3 receptor (Cavia porcellus, UniProt Q9JI35)
# method description: ileal longitudinal muscle, myenteric plexus functional assay (rightward shift of R-(α)-methylhistamine E/[A] curves, Schild)
# Assay type: cell-based
# Design: the longitudinal muscle layer and adhering myenteric plexus was teased away; from tissue; host or cells: guinea pig ileal longitudinal muscle with myenteric plexus (organ bath)
# condition description: guinea pig ileum longitudinal muscle myenteric plexus, electrically stimulated; antagonism of R-(α)-methylhistamine; typical variance ±0.15 log units; read-out: pKB (functional assay) - ileum (converted)
endpoint: Kb (nM)

compound: O=S(=O)(CCCCCc1c[nH]cn1)NCCc1ccc(Cl)cc1
test target: Histamine H3 receptor (Cavia porcellus, UniProt Q9JI35)
endpoint: Kb
value units: nM
experimental value: 29.5
--
compound: O=S(=O)(CC(O)CCCc1c[nH]cn1)NCc1ccccc1 (stereo not drawn)
test target: Histamine H3 receptor (Cavia porcellus, UniProt Q9JI35)
endpoint: Kb
value units: nM
experimental value: 724
--
compound: O=C(CCc1c[nH]cn1)CS(=O)(=O)NCc1ccc(Cl)cc1
test target: Histamine H3 receptor (Cavia porcellus, UniProt Q9JI35)
endpoint: Kb
value units: nM
experimental value: 257
--
compound: O=S(=O)(CC(O)CCCc1c[nH]cn1)NCc1ccc(Br)cc1 (stereo not drawn)
test target: Histamine H3 receptor (Cavia porcellus, UniProt Q9JI35)
endpoint: Kb
value units: nM
experimental value: 18.2

P = Cc1ccc(CNS(=O)(=O)CCCCCc2c[nH]cn2)cc1
Q = O=S(=O)(CC(O)CCc1c[nH]cn1)NCc1ccc(Cl)cc1 (stereo not drawn)
Input: // which entry reports the smaller Kb, P or Q ? I would appreciate it if you answered with the label of your choice.
Output: P
(P: 25.7 nM, Q: 240 nM)
